System: HT29 colon
Assay Summary: NCI tumour cell line growth inhibition, 48 h; in the data active means GI50 below about 0.43 µM; inactive means the rest
// classify into t for active, f for inactive

Answered cases to consult:
| Compound | Label |
| --- | --- |
| N[C@@H]1CCCC[C@@H]1N.O=C([O-])CN(CP(=O)([O-])[O-])CP(=O)([O-])[O-].[Pt+2] | f |
| CC(=O)c1cc2c(c3ccsc13)-c1ccccc1CC2 | f |
| N#C/C(N)=C(\C#N)N=Cc1csc2ccccc12 | f |
| c1cc[c]([Sn]([S]c2cccc3cccnc23)([S]c2cccc3cccnc23)[c]2ccccc2)cc1 | t |

In: Call for entry COC(=O)C1(C2CC/C(C)=C/CC/C(C)=C/CC[C@@]3(C)O[C@@H]3C2)CC1 (stereo partly drawn) :
Out: f

In: Please answer likewise for CN1CCN(c2ccc(NC3=C(Cl)C(=O)c4ncccc4C3=O)cc2C#N)CC1
Out: f

In: Try this compound too: Cc1ccc(C2C3=C(N=c4s/c(=C/c5ccc(Br)cc5)c(=O)n42)c2ccc4ccccc4c2OCC3)cc1 (stereo not drawn)
Out: f

In: Also, COc1cc(C2=NN(c3ccc(S(N)(=O)=O)cc3)C(c3ccc(Cl)cc3)C2)cc(OC)c1OC (stereo not drawn) please.
Out: f

* * *

Tested on: CCRF-CEM leukemia
Assay Summary: NCI tumour cell line growth inhibition, 48 h
I'd be grateful if you could share measured TGI for these entries.

Give TGI for each listed item.
1. COC(=O)C1N=CSCC1(C)O (centres undefined)
2. S=C1N=C(Cl)/C(=C\c2ccco2)N1
3. CCCSc1ccc2[nH]c(N3C(=O)/C(=C/c4cc(OC)c(OC)c(OC)c4)N=C3c3ccccc3)cc2c1
4. CCCCCCCCCCCC(=O)c1c(O)cccc1O

Out:
1. > 100 µM
2. > 100 µM
3. > 32.9 µM
4. 62.8 µM

* * *

Test system: MDA-N
Assay Summary: NCI tumour cell line growth inhibition, 48 h
Please go through the items and note down their TGI.

Example results:
| Molecule | TGI |
| --- | --- |
| O=c1c2ccccc2[nH]c(=S)n1-c1ccc(N=Nc2cccc3cc(O)ccc23)cc1 | > 100 µM |
| O[C@H]1[C@H]2[C@H](O)C[C@H](CCOCc3ccccc3)CN2C[C@H]1O | > 100 µM |
| NCCP(=O)(O)O | > 100 µM |
| CC(/C=N\NC(=S)N(C)C)=N/NC(=S)N(C)C | > 100 µM |
| COC(=O)C1ON2C(C1C(=O)OC)C(C)(C)N(O)C2(C)C (configuration not stated) | > 10 µM |
| COc1ccc(NS(=O)c2ccccc2OC)cc1 (configuration not stated) | > 100 µM |
| Nc1ccc(Oc2ccc(C34CC5CC(C3)CC(c3ccc(Oc6ccc(N)cc6)cc3)(C5)C4)cc2)cc1 | > 45.1 µM |
| O=C1/C(=C/c2ccccc2)CCc2ccccc21 | 32.2 µM |
| Cn1c2ccccc2n2c3ccccc3c(=O)c(C#N)c12 | > 100 µM |
| O=[N+]([O-])/C=C\c1c[nH]c2ccc(OCc3ccccc3)cc12 | 5.56 µM |

Here are 2 molecules. What values of TGI were reported for them?
1. COc1ccc(C(=O)N(C(=O)N2CCN(c3ccccc3)CC2)S(=O)(=O)c2ccccc2)cc1
2. COC(=O)C1=C(O)CCCC(CCC(C)=O)=C1

Out:
["65.4 µM", "> 100 µM"]
